# Procedure text: Mean residence time in Sprague-Dawley rat at 5 mg/kg, iv
# Format: ADME, organism-based
# Design: dose 5 mg/kg, route intravenous
# Test settings: in vivo
Quantity kind: MRT (h)
Kindly answer with a numeric value in h, unit omitted.

Reported MRT for CN(C)CCCCCN(C)C1=Nc2ccccc2C(CC(=O)NCc2ccccc2)N1c1ccc(-c2ccccc2)cc1.Cl.Cl (stereo unspecified) : what is it?
5.09

###

# Procedure text: Toxicity in ICR mouse assessed as mortality rate at 34.6 mg/kg, iv administered as single dose
# Type: organism-based
# Design: dose 34.6 mg/kg, route intravenous
# Test settings: in vivo, read-out: Activity
Quantity kind: mortality
A complete answer gives the number and then names the unit.

Param item = CN(C)CCCCCN(C)C1=Nc2ccccc2C(CC(=O)NCc2ccccc2)N1c1ccc(-c2ccccc2)cc1.Cl.Cl (stereo unspecified) ; retrieve measured mortality.
20%

Data provenance is ChEMBL document CHEMBL1268927.
